Entries annotated with measured TGI
test system: MOLT-4 leukemia; experiment: NCI tumour cell line growth inhibition, 48 h

Example entries and their recorded answers appear below.
{"columns": ["Compound", "Measurement type", "Reading"],
 "data": [
  ["COc1c(N2CCCCC2)c2c(=O)c3ccccc3oc2c2cc(C)oc12", "TGI", "> 100 µM"],
  ["CC(C)COC(=O)N1N=NC2C3CC(=O)C(O3)C21 (stereo not given)", "TGI", "> 100 µM"],
  ["Nc1nc(Cl)cc(NCC2(CO)CC(CCCc3ccccc3)C2)n1 (stereo not given)", "TGI", "> 100 µM"]
]}

Asked: Input `CC[C@@]1(O)C(=O)OCc2c1cc1n(c2=O)Cc2cc3c([N+](=O)[O-])c(O)ccc3nc2-1` , output reported TGI.
Given back: 0.188 µM

Asked: Please give measured TGI of the following entry: `COc1ccc2c(c1)OCC1=C2Oc2ccccc2C1`
Given back: 85.5 µM

Asked: Supply recorded TGI for `COCn1c(=O)n(C)c(=O)c2c1nc1c(c(=O)n(C)c(=O)n1COC)[n+]2[O-]` here.
Given back: 29.5 µM

Asked: Tell me TGI reported for `Cc1nnc(N2C(=O)C(=Cc3ccc(Cl)cc3)N=C2c2ccc(Cl)cc2)nc1/C=C\c1ccc(N(C)C)cc1`
Given back: > 100 µM

Asked: Hello, please tell me recorded TGI for this one: `CC(C)(c1ccccc1)c1ccc(Oc2ccc3c(c2)-c2nc-3nc3[nH]c(nc4nc(nc5[nH]c(n2)c2ccc(Oc6ccc(C(C)(C)c7ccccc7)cc6)cc52)-c2cc(Oc5ccc(C(C)(C)c6ccccc6)cc5)ccc2-4)c2ccc(Oc4ccc(C(C)(C)c5ccccc5)cc4)cc32)cc1`
Given back: > 100 µM

###

test system: HCT-116 colon; test: NCI tumour cell line growth inhibition, 48 h; in the data active = GI50 below about 0.43 µM; inactive = the rest
Tick one outcome: YES = active, NO = inactive

Example entries and their recorded answers appear below.
{"columns": ["Molecule", "Label value"],
 "data": [
  ["Nc1nc2ccccc2c2[nH]c3ccccc3c12", "NO"],
  ["COc1cc(-c2nn(-c3ccc(NC(=O)Nc4ccc(Cl)c(C(F)(F)F)c4)cc3)cc2-c2ccncc2)ccc1Cl", "NO"],
  ["Cc1cc(NCCCNc2ccnc3cc(Cl)ccc23)nc(Nc2ccc(C(=O)N3CCCCC3)cc2)n1", "NO"],
  ["COc1ccccc1CN=C1NC(=O)/C(=C/c2ccc3ncccc3c2)S1", "NO"],
  ["COc1ccc(C(=O)OC2C(OC3C(O)COC(O[C@H]4C[C@H]5[C@@H]6CC=C7C[C@@H](O)CC[C@]7(C)[C@H]6CC[C@]5(C)[C@H]4[C@H](C)C(=O)CCC(C)C)C3OC(=O)C(C)C)OCC(O)C2O)cc1 (some centres undefined)", "YES"],
  ["CN(Cc1ccccc1)c1ncnc2ccc(Br)cc12", "NO"]
]}

Asked: Tell me the recorded outcome of this test for `COc1cc2c(cc1OCCCOc1cc3c(cc1OC)C(=O)N1CC(F)(F)C[C@H]1C=N3)N=C[C@@H]1CC(F)(F)CN1C2=O` .
Given back: YES

Asked: # outcome recorded in this test, key = `C[C@]12CC/C(=N\O)C[C@@H]1CC[C@@H]1[C@@H]2CC[C@]2(C)/C(=N/O)CC[C@@H]12`
Given back: NO

Asked: Per the records of this test, what outcome belongs to Cc1c(C)n(CC(O)CNC2CCCCC2C)c2ccccc12 (centres undefined) ?
Given back: NO
